Test: Positive allosteric modulation of AMPA receptor in rat embryonic cortex primary neuronal culture assessed as increase in AMPA-induced membrane depolarization by microplate reader
Type: cell membranes
Details: primary neuron
QUANTITY_NAME: EC50 (µM)
Please state the figure in µM; there is no need to write the unit.

Worked set:
* O=S1(=O)NCN(C2CC2)c2ccc(F)cc21 | 0.9
* O=S1(=O)NCN(C2CC2)c2ccc(Cl)cc21 | 2.9

Now take the following compound into account.
For O=S1(=O)NCN(C2CC2)c2cccnc21 the compound record lists EC50 as 1.5

----------
Organism: Rattus norvegicus
Assay: Positive allosteric modulation of AMPA receptor in rat hippocampal slice assessed as increase in AMPA-mediated presynaptic noradrenaline release
Format: tissue-based
Set-up: concentration or dose not given beside the values
Conditions: Hippocampus
Each entry below carries its reported Activity.
State just the number; it will be interpreted in %.

- O=S1(=O)NCN(C2CC2)c2ccncc21: 330
- O=S1(=O)NCN(C2CC2)c2ncccc21: 221
- O=S1(=O)NCN(C2CC2)c2c(Cl)cccc21: 196
- O=S1(=O)NCN(C2CC2)c2ccc(Cl)cc21: 411
- O=S1(=O)NCN(C2CC2)c2ncc(Cl)cc21: 276

Entry O=S1(=O)NCN(C2CC2)c2cccc(Cl)c21 , Activity reported as 352

The compound identified as O=S1(=O)NCN(C2CC2)c2cc(Cl)ccc21 registered its Activity at 327

Data point: O=S1(=O)NCN(C2CC2)c2cccnc21 ; Activity = 323

----------
System: Primary neuron
Experiment: Positive allosteric modulation of AMPA receptor in rat embryonic cortex primary neuronal culture assessed as maximal increase in AMPA-induced membrane depolarization normalized to AMPA-evoked response by microplate reader
Format: cell membranes
QUANTITY_NAME: Emax

The compound listed as O=S1(=O)NCN(C2CC2)c2ncccc21 has a reported Emax of > 4

The compound listed as O=S1(=O)NCN(C2CC2)c2ccc(F)cc21 has a reported Emax of 15

Sure, the documented Emax for O=S1(=O)NCN(C2CC2)c2ncc(Cl)cc21 is > 7
